// reported Avg % Edit per item
Tested on: TTR
Test: TTR editing in HUH7 cells transfected with Spy Cas9 mRNA and dgRNAs (Table 5)
Type: cell-based, human
Conditions: HUH7 cells co-transfected with Spy Cas9 mRNA (SEQ ID NO:2) and dgRNAs
Unit % implied. Number only.

Guide cases for Avg % Edit, answers given:
[[record]]
sequence_input = "CAGAGGACACUUGGAUUCAC (tested as dual guide RNA, chemistry not given here) [CR003343]"
endpoint_unit = "%"
measured_value = 76.13

[[record]]
sequence_input = "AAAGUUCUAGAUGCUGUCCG (tested as dual guide RNA, chemistry not given here) [CR003346]"
endpoint_unit = "%"
measured_value = 18.07

[[record]]
sequence_input = "CUGGUAUUUGUGUCUGAGGC (tested as dual guide RNA, chemistry not given here) [CR003341]"
endpoint_unit = "%"
measured_value = 20.58

[[record]]
sequence_input = "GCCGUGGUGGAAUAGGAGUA (tested as dual guide RNA, chemistry not given here) [CR003387]"
endpoint_unit = "%"
measured_value = 25.64


Return reported Avg % Edit; argument: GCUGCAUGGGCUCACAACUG (tested as dual guide RNA, chemistry not given here) [CR003361]
28.68

Return reported Avg % Edit; argument: GGGCGGCAAUGGUGUAGCGG (tested as dual guide RNA, chemistry not given here) [CR003379]
19.18

Return reported Avg % Edit; argument: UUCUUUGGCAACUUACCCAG (tested as dual guide RNA, chemistry not given here) [CR003357]
36.31

###

// reported Avg % Edit per item
Test system: TTR
Assay: TTR editing in primary human hepatocytes transfected with Spy Cas9 mRNA and dgRNAs (Table 9)
Format: cell-based
Conditions: dgRNA co-transfected with Spy Cas9 mRNA (SEQ ID NO:2)
Param answer (str): number followed by unit.

[[record]]
sequence_input = "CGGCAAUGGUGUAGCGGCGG (tested as dual guide RNA, chemistry not given here) [CR003376]"
measured_value = "2.83%"

[[record]]
sequence_input = "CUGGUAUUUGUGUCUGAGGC (tested as dual guide RNA, chemistry not given here) [CR003341]"
measured_value = "15.83%"

[[record]]
sequence_input = "GUAUUCACAGCCAACGACUC (tested as dual guide RNA, chemistry not given here) [CR003373]"
measured_value = "1.40%"


Return reported Avg % Edit; argument: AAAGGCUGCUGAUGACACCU (tested as dual guide RNA, chemistry not given here) [CR003353]
53.73%

###

// reported Avg % Deletion per item
Tested on: TTR
Experiment: TTR editing in primary human hepatocytes transfected with Spy Cas9 mRNA and dgRNAs (Table 9)
Assay type: cell-based
Settings: dgRNA co-transfected with Spy Cas9 mRNA (SEQ ID NO:2)

Guide cases for Avg % Deletion, answers given:
[[record]]
sequence_input = "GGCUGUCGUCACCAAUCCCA (tested as dual guide RNA, chemistry not given here) [CR003391]"
measured_value = "0.30%"

[[record]]
sequence_input = "ACCUGGGAGCCAUUUGCCUC (tested as dual guide RNA, chemistry not given here) [CR003354]"
measured_value = "0.13%"

[[record]]
sequence_input = "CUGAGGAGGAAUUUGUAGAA (tested as dual guide RNA, chemistry not given here) [CR003364]"
measured_value = "8.93%"


As a next step, examine the sequence that follows.
Return reported Avg % Deletion; argument: AUGCAGCUCUCCAGACUCAC (tested as dual guide RNA, chemistry not given here) [CR003358]
1.17%
